Reported Kd is given for each of the following compounds.
Target: GDP-bound KRAS wild-type protein (Homo sapiens, UniProt P01116)
Sequence (P01116 1-188 isoform P01116-2): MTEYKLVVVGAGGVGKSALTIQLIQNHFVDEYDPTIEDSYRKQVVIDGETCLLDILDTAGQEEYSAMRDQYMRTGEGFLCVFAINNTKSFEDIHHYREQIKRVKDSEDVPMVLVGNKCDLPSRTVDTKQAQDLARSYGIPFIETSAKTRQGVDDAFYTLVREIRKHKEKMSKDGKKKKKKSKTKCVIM
Assay: Binding to KRAS by surface plasmon resonance (SPR), dissociation constant KD
Conditions: Single Cycle Kinetics
MEASURED_ATTRIBUTE: Kd (pM)

smi=CCO[C@@H]1C[C@H]2C(=O)NC3(CCCC3)C(=O)N(C)[C@@H](C3CCC3)C(=O)N(C)[C@H](C(=O)N(C)C)CC(=O)N(C)[C@@H](CC(C)C)C(=O)N[C@@H]([C@@H](C)CC)C(=O)N(C)CC(=O)N(C)[C@H]3C/C(F)=C\CCN(C3=O)[C@@H](Cc3ccc(C)cc3)C(=O)N(C)CC(=O)N[C@@H](CCc3cc(F)c(C(F)(F)F)c(F)c3)C(=O)N2C1 readout_value=1800
smi=C#CC[C@H]1C(=O)N[C@@H]([C@@H](C)CC)C(=O)N(C2CC2)CC(=O)N(C)[C@H]2C/C=C\CCN(C2=O)[C@@H](Cc2ccc(C)cc2)C(=O)N(C)CC(=O)N[C@@H](CCc2cc(F)c(C(F)(F)F)c(F)c2)C(=O)N2C[C@H](OCC)C[C@H]2C(=O)N(C)C2(CCC2)C(=O)N(C)[C@@H](C2CCCC2)C(=O)N(C)[C@H](C(=O)N(C)C)CC(=O)N1C readout_value=100

###

Molecular target: GDP-bound KRAS wild-type protein (Homo sapiens, UniProt P01116)
Test: Binding to KRAS by surface plasmon resonance (SPR), dissociation constant KD
Details: Single Cycle Kinetics, 1:1 binding model
Reported Kd is given for each of the following compounds.
MEASURED_ATTRIBUTE: Kd

smi=CCO[C@@H]1C[C@H]2C(=O)NC3(CCC3)C(=O)N(C)[C@@H](C3CCCC3)C(=O)N(C)[C@H](C(=O)N(C)C)CC(=O)N(C)[C@@H](C)C(=O)N[C@@H]([C@H](C)CC)C(=O)N(C)CC(=O)N(C)[C@H]3CCCCCN(C3=O)[C@@H](Cc3ccc(C(F)(F)F)cc3)C(=O)N(C)CC(=O)N[C@@H](CCc3cc(F)c(C(F)(F)F)c(F)c3)C(=O)N2C1 system_under_test="GDP-bound KRAS wild-type protein (Homo sapiens, UniProt P01116)" measured_attribute=Kd readout_value="2.7 nM"
smi=CCO[C@@H]1C[C@H]2C(=O)NC3(CCC3)C(=O)N(C)[C@@H](C3CCCC3)C(=O)N(C)[C@H](C(=O)N(C)C)CC(=O)N(C)[C@@H](Cc3cccs3)C(=O)N[C@@H]([C@@H](C)CC)C(=O)N(C)CC(=O)N(C)[C@H]3CCCCCN(C3=O)[C@@H](Cc3ccc(C(F)(F)F)cc3)C(=O)N(C)CC(=O)N[C@@H](CCc3cc(F)c(C(F)(F)F)c(F)c3)C(=O)N2C1 system_under_test="GDP-bound KRAS wild-type protein (Homo sapiens, UniProt P01116)" measured_attribute=Kd readout_value="0.32 nM"
smi=CCO[C@@H]1C[C@H]2C(=O)N(C)C3(CCC3)C(=O)N(C)[C@@H](C3CCCC3)C(=O)N(C)[C@H](C(=O)N(C)C)CC(=O)N(C)[C@@H](CC3CC3)C(=O)N[C@@H]([C@@H](C)CC)C(=O)N(C)CC(=O)N(C)[C@H]3C/C=C\CCN(C3=O)[C@@H](Cc3ccc(C)cc3)C(=O)N(C)CC(=O)N[C@@H](CCc3cc(F)c(C(F)(F)F)c(F)c3)C(=O)N2C1 system_under_test="GDP-bound KRAS wild-type protein (Homo sapiens, UniProt P01116)" measured_attribute=Kd readout_value="0.031 nM"
